- System: renal progenitor cells (lhx1a expression)
- method: In situ hybridization for lhx1a expression in 10-somite embryos (renal progenitor cell expansion)
- Format: in vivo
- cond: lhx1a in situ hybridization; includes repeats* and recounts
Listed next: entries and their corresponding Expansion of Cells, 1.5 μM.
measurement name: Expansion of Cells, 1.5 μM (%)

compound: COC(=O)CCCSc1ccc(OC)cc1 [UPHD-00022]
study system: renal progenitor cells (lhx1a expression)
measurement name: Expansion of Cells, 1.5 μM
units label: %
reported value: 91

compound: Nc1ccccc1NC(=O)CCCSCCc1ccccc1 [UPHD-00190]
study system: renal progenitor cells (lhx1a expression)
measurement name: Expansion of Cells, 1.5 μM
units label: %
reported value: 0

compound: Nc1ccccc1NC(=O)CCCCSCc1ccccc1 [UPHD-00188]
study system: renal progenitor cells (lhx1a expression)
measurement name: Expansion of Cells, 1.5 μM
units label: %
reported value: 0

compound: O=C(CCCCCSc1ccccc1)Nc1ccccc1O [UPHD-00187]
study system: renal progenitor cells (lhx1a expression)
measurement name: Expansion of Cells, 1.5 μM
units label: %
reported value: 52

compound: O=C(CCCSc1ccc(F)cc1)NO [UPHD-00029]
study system: renal progenitor cells (lhx1a expression)
measurement name: Expansion of Cells, 1.5 μM
units label: %
reported value: 82.4

###

- Test system: renal progenitor cells (lhx1a expression)
- method: In situ hybridization for lhx1a expression in 10-somite embryos (renal progenitor cell expansion)
- Assay type: in vivo
- cond: lhx1a in situ hybridization; includes repeats* and recounts

chemical smiles: O=C(CCCCCSc1ccccc1)Nc1ccccc1O
units label: %
Expansion of Cells, 800 nM: 52

chemical smiles: Nc1ccccc1NC(=O)CCCSCCc1ccccc1
units label: %
Expansion of Cells, 800 nM: 0

chemical smiles: Nc1ccccc1NC(=O)CCCCSCc1ccccc1
units label: %
Expansion of Cells, 800 nM: 0

chemical smiles: COC(=O)CCCSc1ccc(OC)cc1
units label: %
Expansion of Cells, 800 nM: 57

###

- System: renal progenitor cells (lhx1a expression)
- method: In situ hybridization for lhx1a expression in 10-somite embryos (renal progenitor cell expansion); on lhx1a expansion class, 200 nM: key: effective (+); partially effective (+/−); ineffective (−); Analogs that killed all embryos at a given concentration before reaching 10 somites are listed as XX
- Assay type: in vivo
- cond: 200 nM from 2 hpf
measurement name: lhx1a expansion class, 200 nM

molecule: COC(=O)CCCSc1ccc(F)cc1 [methyl 4-[(4-fluorophenyl)thio]butanoate]
reported value: +/−
//
molecule: COC(=O)CCCSc1ccc(C)cc1 [methyl 4-[(4-methylphenyl)thio]butanoate]
reported value: −
//
molecule: CCC(=O)CCCCC[C@@H]1NC(=O)[C@H]2CCCCN2C(=O)[C@H]([C@@H](C)CC)NC(=O)[C@H](Cc2cn(OC)c3ccccc23)NC1=O [apicidin, reference compound]
reported value: −
//
molecule: Cc1ccc(SCCCC(=O)NO)cc1
reported value: −
//
molecule: COC(=O)CCCSc1ccc(OC)cc1
reported value: −
//
molecule: O=C(CCCSc1ccc(F)cc1)NO
reported value: −
//
molecule: CC(/C=C/C(=O)NO)=C\[C@@H](C)C(=O)c1ccc(N(C)C)cc1
reported value: +

###

- Tested on: kidney field (cad17:EGFP)
- method: Image-based high-content screen, Tg(cad17:EGFP) embryos, CNT analysis
- Type: in vivo, zebrafish
- cond: Danio rerio, 4 individual values (n=4)
pEC50: −log10 of the molar value.

compound: O=C(CCCSc1ccccc1)Nc1ccccc1O [UPHD-00186]
study system: kidney field (cad17:EGFP)
pEC50: 6.23

Source listed as patent US10233201B2.
